# credit: ChEMBL document CHEMBL1134133

target: Coagulation factor X (Homo sapiens) (UniProt P00742); experiment: In vitro inhibition of human coagulation factor X.
Sequence (P00742 41-179 limits assumed): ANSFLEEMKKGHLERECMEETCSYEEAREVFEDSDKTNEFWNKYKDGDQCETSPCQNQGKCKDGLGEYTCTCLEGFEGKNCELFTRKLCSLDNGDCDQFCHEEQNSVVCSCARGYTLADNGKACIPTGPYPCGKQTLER
Sequence (P00742 235-488 limits assumed): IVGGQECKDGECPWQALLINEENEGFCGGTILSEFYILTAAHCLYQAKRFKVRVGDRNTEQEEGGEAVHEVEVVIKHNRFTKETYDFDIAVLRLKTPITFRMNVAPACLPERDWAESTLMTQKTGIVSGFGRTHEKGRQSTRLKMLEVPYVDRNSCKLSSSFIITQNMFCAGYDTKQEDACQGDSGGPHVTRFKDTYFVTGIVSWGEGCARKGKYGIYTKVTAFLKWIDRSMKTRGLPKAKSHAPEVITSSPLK
# log10 Ki' listing for each entry below
property: log10 Ki' (log10 of the value in µM)

>  <itemSmiles>
Cc1ccc(NC(=O)c2sc3ccccc3c2Cl)c(C(=O)Nc2ccc(N3CCOCC3)cc2)c1

>  <log10 Ki'>
2.64

$$$$
>  <itemSmiles>
Cc1ccc(NC(=O)c2sc3ccccc3c2Cl)c(C(=O)Nc2ccncc2)c1

>  <log10 Ki'>
1.34

$$$$
>  <itemSmiles>
Cc1ccc(NC(=O)c2cc3ccc(O)cc3s2)c(C(=O)Nc2ccc(F)cc2)c1

>  <log10 Ki'>
1.00

$$$$
>  <itemSmiles>
COc1ccc(NC(=O)c2cc(C)ccc2NC(=O)c2sc3ccccc3c2Cl)cc1

>  <log10 Ki'>
0.32

$$$$
>  <itemSmiles>
Cc1ccc(NC(=O)c2sc3ccccc3c2Cl)c(C(=O)Nc2ccc(F)cc2)c1

>  <log10 Ki'>
-0.24

$$$$
>  <itemSmiles>
Cc1ccc(NC(=O)c2cc3cc(O)ccc3s2)c(C(=O)Nc2ccc(F)cc2)c1

>  <log10 Ki'>
0.54

$$$$
>  <itemSmiles>
O=C(Nc1ccc(F)cc1)c1ccccc1NC(=O)c1sc2ccccc2c1Cl

>  <log10 Ki'>
0.49

$$$$
>  <itemSmiles>
Cc1ccc(NC(=O)c2sc3ccccc3c2Cl)c(C(=O)Nc2ccc(Cl)cc2)c1

>  <log10 Ki'>
-0.68

$$$$
>  <itemSmiles>
O=C(Nc1ccccn1)c1ccccc1NC(=O)c1sc2ccccc2c1Cl

>  <log10 Ki'>
0.89

$$$$
>  <itemSmiles>
Cc1ccc(NC(=O)c2sc3ccccc3c2Cl)c(C(=O)Nc2ccc(O)cc2)c1

>  <log10 Ki'>
1.99

$$$$
>  <itemSmiles>
Cc1ccc(NC(=O)c2sc3ccccc3c2Cl)c(C(=O)Nc2ccc3c(c2)OCO3)c1

>  <log10 Ki'>
1.25

$$$$

====

target: Coagulation factor X (Homo sapiens); assay: In vitro inhibition of human coagulation factor X.

>  <itemSmiles>
O=C(O)c1ccc(NC(=O)c2ccccc2NC(=O)c2sc3ccccc3c2Cl)cc1

>  <testSystem>
Coagulation factor X (Homo sapiens)

>  <Ki'>
> 150 µM

$$$$
>  <itemSmiles>
O=C(Nc1ccccc1C(=O)N1CCOCC1)c1sc2ccccc2c1Cl

>  <testSystem>
Coagulation factor X (Homo sapiens)

>  <Ki'>
> 150 µM

$$$$
>  <itemSmiles>
Cc1ccc(NC(=O)c2sc3ccccc3c2Cl)c(C(=O)N2CCNCC2)c1

>  <testSystem>
Coagulation factor X (Homo sapiens)

>  <Ki'>
> 1200 µM

$$$$
>  <itemSmiles>
Cc1ccc(NC(=O)c2sc3ccccc3c2Cl)c(C(=O)Nc2ccccc2Cl)c1

>  <testSystem>
Coagulation factor X (Homo sapiens)

>  <Ki'>
> 1200 µM

$$$$
>  <itemSmiles>
O=C(O)c1cccc(NC(=O)c2ccccc2NC(=O)c2sc3ccccc3c2Cl)c1

>  <testSystem>
Coagulation factor X (Homo sapiens)

>  <Ki'>
> 150 µM

$$$$
>  <itemSmiles>
Cc1ccc(NC(=O)c2sc3ccccc3c2Cl)c(C(=O)Nc2ccc(N(C)C)cc2)c1

>  <testSystem>
Coagulation factor X (Homo sapiens)

>  <Ki'>
> 1200 µM

$$$$
